target: Solute carrier family 2, facilitated glucose transporter member 1 (Homo sapiens) (UniProt P11166); assay: ST_JUDE_LEISH: Cytotoxicity at 2uM final concentration against transgenic Leishmania Mexicana promastigotes LmGLUT1 that are glucose transport deficient and complemented with the human glucose transporter GLUT1. Activity is measured by DNA content using SYBR green in vitro; type: functional
Sequence (P11166 whole entry): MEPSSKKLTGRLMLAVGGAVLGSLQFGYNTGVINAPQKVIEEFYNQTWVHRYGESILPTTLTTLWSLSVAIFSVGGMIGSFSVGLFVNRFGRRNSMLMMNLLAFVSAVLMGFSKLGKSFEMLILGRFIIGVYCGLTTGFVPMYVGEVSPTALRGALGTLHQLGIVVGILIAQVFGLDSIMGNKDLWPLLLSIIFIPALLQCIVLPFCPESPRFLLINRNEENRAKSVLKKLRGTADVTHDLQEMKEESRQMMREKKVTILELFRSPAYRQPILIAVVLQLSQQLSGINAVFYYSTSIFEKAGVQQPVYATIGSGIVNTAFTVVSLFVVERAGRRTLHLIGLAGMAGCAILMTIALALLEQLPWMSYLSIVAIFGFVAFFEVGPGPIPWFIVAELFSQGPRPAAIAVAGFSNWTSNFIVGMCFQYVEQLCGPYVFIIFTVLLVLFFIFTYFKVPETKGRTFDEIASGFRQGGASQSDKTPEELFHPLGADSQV
Please provide measured inhibition for the entries that follow.
Give a bare numeral; the unit % is implied.

Task: Indicate the recorded inhibition value for this compound: "COc1cc(Cc2cnc3nc(N)nc(N)c3c2C)cc(OC)c1OC"
Output: 1.29

Task: Indicate the recorded inhibition value for this compound: "O=C(CNC(=O)c1ccc(O)cc1)Nc1ccc(-c2cccc(-c3nc4cc(C(F)(F)F)ccc4[nH]3)c2)cc1"
Output: 8.61

Task: Indicate the recorded inhibition value for this compound: "O=C(Cc1ccc(NC(=O)c2ccc(O)c(-c3ccc(Cl)c(Cl)c3)c2)cc1)NCCc1ccc(Cl)c(Cl)c1"
Output: 2.01

Task: Indicate the recorded inhibition value for this compound: "CC(C)Oc1ccc2ccccc2c1CNCCCCCCNCc1c(OC(C)C)ccc2ccccc12"
Output: 31.1

Task: Indicate the recorded inhibition value for this compound: "O=c1cc(NCCCNCc2ccccc2-c2ccccc2)[nH]c2ccccc12"
Output: 2.76

Task: Indicate the recorded inhibition value for this compound: "COCc1nc(N)nc(N)c1-c1ccc(Cl)c(Cl)c1"
Output: -0.03

Task: Indicate the recorded inhibition value for this compound: "C[C@@H](Nc1nc(NCc2ccccc2)c2sccc2n1)c1ccccc1"
Output: 24

Task: Indicate the recorded inhibition value for this compound: "Cc1ccc(Cl)c2sc(N3CCN(C(=O)c4ccc([N+](=O)[O-])o4)CC3)nc12"
Output: 62.4

Task: Indicate the recorded inhibition value for this compound: "Cc1noc(C)c1-c1cccc(CNCc2ccc(-c3ccc(-c4nc5cc(C(F)(F)F)ccc5[nH]4)s3)cc2)c1"
Output: 3.88

Task: Indicate the recorded inhibition value for this compound: "COc1cc(Cc2cnc(N)nc2N)ccc1OCC(=O)Nc1ccc(C)cc1"
Output: 8.4

Task: Indicate the recorded inhibition value for this compound: c1ccc2[nH]c(-c3ccc(-c4ccc(CNCC5CCCO5)cc4)s3)nc2c1 (stereo not given)
Output: 5.5

Task: Indicate the recorded inhibition value for this compound: "COc1ccc(CCn2c(=N)c(C(=O)NC3CCCC3)cc3c(=O)n4ccccc4nc32)cc1"
Output: 7.26

Task: Indicate the recorded inhibition value for this compound: "Cc1cc(C(=O)NCc2ccc(-c3c(C)noc3C)cc2)n(-c2ccc(Cl)cc2)n1"
Output: 8.7

Task: Indicate the recorded inhibition value for this compound: "CC(=O)C=C1CC(=O)N(C[C@@H](O)[C@H]2O[C@@H]3OC(C)(C)O[C@@H]3[C@H]2O)c2ccccc2N1"
Output: 2.82

Task: Indicate the recorded inhibition value for this compound: "COc1cc(OC)cc(C(=O)Nc2ccc(Nc3nc(C)cc(N(C)C)n3)cc2)c1"
Output: 6.01

###

target: Solute carrier family 2, facilitated glucose transporter member 1 (Homo sapiens); experiment: ST_JUDE_LEISH: Cytotoxicity at 2uM final concentration against transgenic Leishmania Mexicana promastigotes LmGLUT1 that are glucose transport deficient and complemented with the human glucose transporter GLUT1. Activity is measured by DNA content using SYBR green in vitro; format: functional
Please provide measured inhibition for the entries that follow.
Give a bare numeral; the unit % is implied.

Task: Indicate the recorded inhibition value for this compound: "Cc1nc2nc(N)nc(N)c2c(C)c1Cc1ccccc1"
Output: 3.29

Task: Indicate the recorded inhibition value for this compound: CC(C)C(=O)NC(c1ccc(Cl)cc1)c1ccc2cccnc2c1O (stereo not given)
Output: 3.14

Task: Indicate the recorded inhibition value for this compound: CN(C)CCOC(=O)C1(O)CCC2CC1C2(C)C (stereo not given)
Output: 2.52

Task: Indicate the recorded inhibition value for this compound: "COc1ccc(CCN(C)CCCCc2ccc(NC(=O)c3cccc4c(=O)c5cc(F)ccc5sc34)cc2)cc1OC"
Output: 9.78

Task: Indicate the recorded inhibition value for this compound: "COc1ccc(S(=O)(=O)Nc2cc(Br)cc3c2OCCC3)cc1N1CCN(C(=O)C(Cl)(Cl)Cl)CC1"
Output: -1.16
